cAMP levels, Percent of Pyr-Apelin-13 Control Activity (10 µM peptide, 10 µM forskolin) values by entry
# assay_system: T1, Apelin Receptor (APJ) stably overexpressed in CHO-K1 AGTRL1 Gi cells (human, UniProt P35414 1-380)
# T1 sequence (looked up): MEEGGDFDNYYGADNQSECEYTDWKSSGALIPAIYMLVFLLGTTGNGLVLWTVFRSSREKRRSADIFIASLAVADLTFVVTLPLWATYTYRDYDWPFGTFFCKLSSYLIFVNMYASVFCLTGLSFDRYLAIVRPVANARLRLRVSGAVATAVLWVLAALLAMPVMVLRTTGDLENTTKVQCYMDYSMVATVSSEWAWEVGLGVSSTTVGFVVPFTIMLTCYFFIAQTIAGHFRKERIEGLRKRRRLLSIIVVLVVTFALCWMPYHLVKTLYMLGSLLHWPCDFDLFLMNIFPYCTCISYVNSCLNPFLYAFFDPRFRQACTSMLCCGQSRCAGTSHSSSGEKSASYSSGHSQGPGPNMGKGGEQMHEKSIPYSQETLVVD
# procedure_text: cell-based or functional assay
Non-standard residues stand in square brackets, D forms with d. Primed or numbered codes have the meaning given here. No end group written: not given here. PEG12″ = PEG12 group on the N-terminal Lys
recorded_metric: cAMP levels, Percent of Pyr-Apelin-13 Control Activity (10 µM peptide, 10 µM forskolin)

>  <binder>
RMMGMVFQSL [SEQ ID NO 53]

>  <test_result>
6 % of Pyr-Apelin-13 control

$$$$
>  <binder>
RMMGMVFQSLCG[dA] [SEQ ID NO 54]

>  <test_result>
20 % of Pyr-Apelin-13 control

$$$$
>  <binder>
MRRMMGMVFQCLCGL [SEQ ID NO 7]

>  <test_result>
109 % of Pyr-Apelin-13 control

$$$$
>  <binder>
KRRMMGMVFQCLCGA ((PEG12) on the N-terminal K (position 1); (dA) D-alanine at position 15) [SEQ ID NO 20]

>  <test_result>
37 % of Pyr-Apelin-13 control

$$$$
>  <binder>
[PEG12″]KRRIIGIVFQCLCG[dA] (cysteine pairing not given here) [SEQ ID NO 42]

>  <test_result>
33 % of Pyr-Apelin-13 control

$$$$
>  <binder>
RRMMGMVFQSLSG[dA] [SEQ ID NO 17]

>  <test_result>
26 % of Pyr-Apelin-13 control

$$$$
>  <binder>
RRLLGLVFQSLCG[dA] [SEQ ID NO 33]

>  <test_result>
27 % of Pyr-Apelin-13 control

$$$$
